These measurements were taken from the supplement of paper PMC7877785.

Test: self-splicing fitness, log relative to wild type (ln ratio); higher = more splicing; Tetrahymena group I intron in knt gene, E. coli kanamycin selection, DiMSum; sequences stand for … in CUCUCU…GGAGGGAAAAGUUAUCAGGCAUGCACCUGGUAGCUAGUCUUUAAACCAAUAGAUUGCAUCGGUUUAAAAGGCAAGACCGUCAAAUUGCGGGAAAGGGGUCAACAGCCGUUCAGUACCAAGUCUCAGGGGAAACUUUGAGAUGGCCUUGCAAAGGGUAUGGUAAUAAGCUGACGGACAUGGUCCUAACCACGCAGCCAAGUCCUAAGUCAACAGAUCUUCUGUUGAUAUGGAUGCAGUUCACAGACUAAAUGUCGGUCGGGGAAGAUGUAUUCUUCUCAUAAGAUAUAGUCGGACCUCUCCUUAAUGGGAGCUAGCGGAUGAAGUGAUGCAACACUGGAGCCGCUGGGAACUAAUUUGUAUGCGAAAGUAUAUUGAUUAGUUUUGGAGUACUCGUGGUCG;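 also: selection with 25 µg/mL kanamycin versus none on LB agar overnight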
Settings: 37 °C
result_type: self-splicing fitness (ln)
Just the number, please, no unit attached.

Problem: Give me measured self-splicing fitness (ln), please, for this sequence: AACUAGCAAUAUUACGAGUA
Solution: -0.322

----------
Test: self-splicing fitness, log relative to wild type (ln ratio); higher = more splicing; Tetrahymena group I intron in knt gene, E. coli kanamycin selection, DiMSum; sequences stand for … in CUCUCU…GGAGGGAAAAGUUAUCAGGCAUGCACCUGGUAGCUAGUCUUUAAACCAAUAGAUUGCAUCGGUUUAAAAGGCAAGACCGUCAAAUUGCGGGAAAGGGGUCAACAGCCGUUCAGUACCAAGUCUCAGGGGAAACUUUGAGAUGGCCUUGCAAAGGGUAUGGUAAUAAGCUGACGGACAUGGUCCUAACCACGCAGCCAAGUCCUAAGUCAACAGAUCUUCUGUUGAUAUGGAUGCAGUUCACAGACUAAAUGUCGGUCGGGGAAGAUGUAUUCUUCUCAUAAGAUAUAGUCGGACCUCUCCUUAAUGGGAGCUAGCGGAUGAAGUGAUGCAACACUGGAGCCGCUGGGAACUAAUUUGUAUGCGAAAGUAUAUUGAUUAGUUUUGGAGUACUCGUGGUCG
Settings: 37 °C
We begin with a simple list: items and their reported self-splicing fitness (ln).

# example entries with known answers
# sequence, result_type, observed_value
records = [
    ("UUUUAGCAAUAUUACGAGAA", "self-splicing fitness (ln)", -0.946),
    ("GAGAAGCAAUAUUACGAUGG", "self-splicing fitness (ln)", -1.69),
    ("CAACAGCAAUAUUACGACCG", "self-splicing fitness (ln)", -0.239),
    ("ACCUAGCAAUAUUACGAUGC", "self-splicing fitness (ln)", -0.172),
    ("UCGUAGCAAUAUUACGGUGA", "self-splicing fitness (ln)", -1.11),
]

Problem: Give me measured self-splicing fitness (ln), please, for this sequence: AUUCAGCAAUAUUACGUGAC
Solution: -1.84

Problem: Give me measured self-splicing fitness (ln), please, for this sequence: UCUUAGCAAUAUUACGGGCA
Solution: -0.119

Problem: Give me measured self-splicing fitness (ln), please, for this sequence: UUCAAGCAAUAUUACGUCAC
Solution: -2.42

Problem: Give me measured self-splicing fitness (ln), please, for this sequence: CUGCAGCAAUAUUACGACGA
Solution: -1.16

Problem: Give me measured self-splicing fitness (ln), please, for this sequence: AGAUAGCAAUAUUACGGUAG
Solution: -1.69

Problem: Give me measured self-splicing fitness (ln), please, for this sequence: CGCAAGCAAUAUUACGGAAA
Solution: -2.5

Problem: Give me measured self-splicing fitness (ln), please, for this sequence: CGAAAGCAAUAUUACGCCUA
Solution: -0.736

Problem: Give me measured self-splicing fitness (ln), please, for this sequence: AGACAGCAAUAUUACGGGCU
Solution: -0.732

Problem: Give me measured self-splicing fitness (ln), please, for this sequence: UCGAAGCAAUAUUACGUGUA
Solution: -1.71

Problem: Give me measured self-splicing fitness (ln), please, for this sequence: GGGGAGCAAUAUUACGUGAA
Solution: -1.81

----------
We begin with a simple list: items and their reported self-splicing fitness (ln).
Experiment: self-splicing fitness, log relative to wild type (ln ratio); higher = more splicing; Tetrahymena group I intron in knt gene, E. coli kanamycin selection, DiMSum; sequences stand for … in CUCUCU…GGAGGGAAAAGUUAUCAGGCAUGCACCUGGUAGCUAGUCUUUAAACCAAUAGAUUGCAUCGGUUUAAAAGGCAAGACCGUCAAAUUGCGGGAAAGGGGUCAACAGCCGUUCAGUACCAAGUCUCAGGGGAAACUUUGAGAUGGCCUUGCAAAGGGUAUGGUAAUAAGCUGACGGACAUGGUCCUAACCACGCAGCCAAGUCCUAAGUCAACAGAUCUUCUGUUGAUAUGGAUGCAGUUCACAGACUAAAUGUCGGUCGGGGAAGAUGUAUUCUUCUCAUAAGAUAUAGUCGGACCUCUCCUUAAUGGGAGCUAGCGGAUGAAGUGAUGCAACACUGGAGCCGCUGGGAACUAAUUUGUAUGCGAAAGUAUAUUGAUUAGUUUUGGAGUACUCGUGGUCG
Settings: 30 °C
Just the number, please, no unit attached.

# example entries with known answers
# sequence, self-splicing fitness (ln)
rows = [
    ("GGAAAGCAAUAUUACGAUUC", -1.84),
    ("GUACAGCAAUAUUACGGGCU", -3.98),
]

Problem: Give me measured self-splicing fitness (ln), please, for this sequence: GUAUAGCAAUAUUACGUGAG
Solution: -1.85

Problem: Give me measured self-splicing fitness (ln), please, for this sequence: CCUUAGCAAUAUUACGAUCC
Solution: -2.32

Problem: Give me measured self-splicing fitness (ln), please, for this sequence: CAAGAGCAAUAUUACGCCCU
Solution: -2.51

Problem: Give me measured self-splicing fitness (ln), please, for this sequence: AAACAGCAAUAUUACGACUC
Solution: -0.613

Problem: Give me measured self-splicing fitness (ln), please, for this sequence: UCCCAGCAAUAUUACGGUAC
Solution: -3.29

Problem: Give me measured self-splicing fitness (ln), please, for this sequence: UCGAAGCAAUAUUACGCAGA
Solution: -2.28

----------
We begin with a simple list: items and their reported self-splicing fitness (ln).
Test: self-splicing fitness, log relative to wild type (ln ratio); higher = more splicing; Tetrahymena group I intron in knt gene, E. coli kanamycin selection, DiMSum; sequences stand for … in CUCUCU…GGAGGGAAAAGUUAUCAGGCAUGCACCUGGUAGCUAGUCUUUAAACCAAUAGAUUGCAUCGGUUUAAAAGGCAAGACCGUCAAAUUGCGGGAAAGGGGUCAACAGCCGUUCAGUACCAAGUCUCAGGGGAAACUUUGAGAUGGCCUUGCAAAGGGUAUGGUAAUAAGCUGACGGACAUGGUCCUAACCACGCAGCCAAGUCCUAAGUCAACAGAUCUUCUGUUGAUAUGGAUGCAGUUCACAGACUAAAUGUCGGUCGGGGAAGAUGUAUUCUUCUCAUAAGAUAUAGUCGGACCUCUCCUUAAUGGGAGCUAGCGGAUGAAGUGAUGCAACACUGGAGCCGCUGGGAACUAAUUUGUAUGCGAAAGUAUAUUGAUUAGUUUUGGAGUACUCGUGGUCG
Details: 30 °C
Just the number, please, no unit attached.

# example entries with known answers
# sequence, observed_value
measured = [
    ("CUUCAGCAAUAUUACGCAAG", -4.31),
    ("UGCUAGCAAUAUUACGAACU", -1.12),
    ("CUCCAGCAAUAUUACGUAGC", -2.49),
]

Let's switch to this sequence now.
Problem: Give me measured self-splicing fitness (ln), please, for this sequence: GCGUAGCAAUAUUACGAAAU
Solution: -2.16

----------
Assay: self-splicing fitness, log relative to wild type (ln ratio); higher = more splicing; Tetrahymena group I intron in knt gene, E. coli kanamycin selection, DiMSum; sequences stand for … in CUCUCU…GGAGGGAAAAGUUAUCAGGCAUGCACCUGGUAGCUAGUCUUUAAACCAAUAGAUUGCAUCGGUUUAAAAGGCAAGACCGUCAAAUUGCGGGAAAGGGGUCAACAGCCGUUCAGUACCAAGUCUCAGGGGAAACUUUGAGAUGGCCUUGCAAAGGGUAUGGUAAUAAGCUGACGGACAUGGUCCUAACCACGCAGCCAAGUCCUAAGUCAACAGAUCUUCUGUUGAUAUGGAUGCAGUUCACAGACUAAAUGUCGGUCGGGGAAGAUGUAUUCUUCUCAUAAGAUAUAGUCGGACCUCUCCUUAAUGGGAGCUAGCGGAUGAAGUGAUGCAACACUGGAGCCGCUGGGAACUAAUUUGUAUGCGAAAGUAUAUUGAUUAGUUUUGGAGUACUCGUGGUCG
Conditions: 37 °C
Param threshold (-1) applies to self-splicing fitness (ln); output Met when value >= threshold, Not met when value < threshold.

Some solved entries appear below for comparison.
# sequence, answer_label
measured = [
    ("AAAGAGCAAUAUUACGGUCA", "Not met"),
    ("UCACAGCAAUAUUACGACUC", "Not met"),
    ("AGAUAGCAAUAUUACGGCGG", "Not met"),
    ("CCAGAGCAAUAUUACGAGUA", "Not met"),
    ("AAACAGCAAUAUUACGUGCG", "Met"),
]

Problem: Would you say UCGGAGCAAUAUUACGUUGU shows self-splicing fitness (ln) at minimum -1?
Solution: Not met

Problem: Would you say AGACAGCAAUAUUACGUAGA shows self-splicing fitness (ln) at minimum -1?
Solution: Not met

Problem: Would you say AGGGAGCAAUAUUACGGGCG shows self-splicing fitness (ln) at minimum -1?
Solution: Not met

Problem: Would you say GAAUAGCAAUAUUACGCAAG shows self-splicing fitness (ln) at minimum -1?
Solution: Not met
